Tested on: FLT3;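 further: KINOMEscan kinase panel screen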
recorded conditions: concentration: 1 μM, replicates: in singlicate; n = 1
Reported %Inh is given for each of the following compounds.
State just the number; it will be interpreted in %.

>>> experimental_result("Cn1cc(-c2ccc3c(c2)CCN3C(=O)Cc2cccc(C(F)(F)F)c2)c2c(N)ncnc21")
28
>>> experimental_result("Clc1cc(Nc2ncnc3cc[nH]c23)ccc1OCc1ccccn1")
7
>>> experimental_result("O=C(Nc1ccccc1F)NC1CCN(c2ccnc(Nc3ccc(F)cc3)n2)C1 (centres unmarked)")
1
>>> experimental_result("Cc1ccc(O)cc1Nc1cc(C(F)(F)F)nc2ccc(-c3ccncc3)cc12")
27

Using known records, supply %Inh for COc1cc2c(Nc3cccc(NC(=O)c4ccccc4)c3)ncnc2cc1OCCCN1CCOCC1
6

FYI, the data here is from paper PMC5540273.
